# Assay procedure: yeast display, Sf9 membrane polyspecificity reagent, FACS + sequencing; frameworks hold sequencing errors
Result type: polyreactivity (PSR sort gate)

Sequence text | Reported value
QVQLVESGGGLVQAGGSLRLSCAASGLTLTHYAMGWYRQAPGKERELVAAISSSGGRTYYADSVKGRFTISRDNAKNTVYLQMNSLKPEDTAVYYCAARVIASRGRYGYWGQGTQVTVSS | high polyreactivity
QVQLQESGGGPVLAGGSLRLSCAASGTIFVRLDMGWYRPAPGKEREFVATIGSGSSTYYADSVKGSFTISRDNVKNTVYLQMNSLQPEDTAVYYCAVSAAEQSRHYYWDQGTQVTVSS | low polyreactivity
QVQLVESWGGLVQAGGSLRLSCADSGYTFYTNAMGWYREAPGKERELVAAISIGGNTNYADSVKGRFTISRDNAKNTVYLQMNSLKPEDTAVYYCAKAWSGISSRDYDLDYWGQGTQVTVSS | low polyreactivity
QVQLVESGGGLVQAGGSLRLSCAASGRIFFRYAMGWYRQAPGKEREFVAAISGTGGSTYYADSVKGRFTISRDNAKNTVYLQMNSLKPEDTAVYYCAASVVSRPTYYAYYYWGQGTQVTVSS | high polyreactivity
